Assay: inhibition of endothelial tube formation, primary screen, imaging, VEGF stimulated, CD31 staining, tube area, NPC library (AID 1117340)
Details: VEGF-stimulated ADSC/ECFC co-culture, at 10 µM, stronger effect = higher value
REPORTED_METRIC: tube area decrease (%)
Give just the number in %; leave the unit off.

compound=CC(=O)OCC1=C(C(=O)O)N2C(=O)[C@@H](NC(=O)CSc3ccncc3)[C@H]2SC1 reported_metric="tube area decrease" display_unit=% result=-9.7
compound="COC(=O)C1=C(C)NC(C)=C(C(=O)OC(C)C)C1c1cccc2nonc12 (stereo unspecified)" reported_metric="tube area decrease" display_unit=% result=13.7
compound=COc1cnc(NS(=O)(=O)c2ccc(N)cc2)nc1 reported_metric="tube area decrease" display_unit=% result=-5.6
compound="CCN(CC)CCOC(=O)C(c1ccccc1)C1CCCCC1 (stereo unspecified)" reported_metric="tube area decrease" display_unit=% result=14.5
compound=Cc1cc(CC(=O)O)n(C)c1C(=O)c1ccc(Cl)cc1 reported_metric="tube area decrease" display_unit=% result=15.1

Now for a further compound.
Data point: CCOC(=O)c1ncn2c1CN(C)C(=O)c1cc(F)ccc1-2 ; tube area decrease = -3.4

* * *

Recorded measurements of red/green cell ratio (normalised), one per entry
Assay: EMT-state selective cytotoxicity in co-culture – imaging, PC-3E GFP, TEM4-18 mCherry, primary screen (AID 1345086);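 note: normalised mesenchymal count divided by normalised epithelial count so high means epithelial killing; cells exposed to compound for 72 h before imaging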
Details: PC-3E GFP / TEM4-18 mCherry co-culture, imaging cell counts; at 1 µM; actives lie on both sides; counts scaled to control wells, 1 = unselective
The source made the active and inactive calls.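 Rule for the calls: active = compounds killing one labelled cell type while sparing the other, by normalised counts and ratio limits, not self-fluorescent; inactive = the rest.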

Data point: CN1C(C(=O)Nc2ccccn2)=C(O)c2sccc2S1(=O)=O ; red/green cell ratio (normalised) = 0.82 (inactive)

Data point: O=C(O)c1ccccc1OP(=O)(O)O ; red/green cell ratio (normalised) = 0.9 (inactive)

Data point: CCC1(C)CC(=O)NC1=O (stereo not drawn) ; red/green cell ratio (normalised) = 1.22 (inactive)

* * *

Test: viability loss with induced miR-34 in A549 – imaging, A549 dox-inducible miR-34, nuclei and caspase counts, primary screen (AID 1347080)
Conditions: A549 miR-34 inducible, Hoechst nuclei count, 48 h; measured here: relative caspase fold change +Dox/-Dox
REPORTED_METRIC: fold change
Keep it simple and answer with nothing but the number.

Previously resolved entries follow.
molecule=O=c1cc(CO)occ1O reported_metric="fold change" result=0.344
molecule=CN(C)CC/C=C1/c2ccccc2COc2ccc(CC(=O)O)cc21 reported_metric="fold change" result=0.692
molecule=Oc1c(Br)cc(Br)c2cccnc12 reported_metric="fold change" result=0.803
molecule=Cc1c(NC(C)C)c(=O)n(-c2ccccc2)n1C reported_metric="fold change" result=1.14
molecule="CC1CC(OC(=O)C(O)c2ccccc2)CC(C)(C)N1C (configuration not stated)" reported_metric="fold change" result=1.56

Data point: C=Cc1c(C)c2cc3[nH]c(cc4nc(cc5nc(cc1[nH]2)C(C)=C5CCC(=O)O)C(CCC(=O)O)=C4C)c(C)c3C=C ; fold change = 1.36

Data point: COc1ccc(C2C(=O)c3ccccc3C2=O)cc1 ; fold change = 2.05

* * *

Recorded measurements of inhibition, one per entry
Assay: growth inhibition, single agents and combos, ICB984, cell-based, cisplatin or BGB combos, synergistic combos for chromothripsis tumors (AID 1671451);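 note: cells exposed for 96 hours before readout; 0% = vehicle DMSO and 100% = killing by high DMSO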
Conditions: ICB984 medulloblastoma cells, drug combinations, cisplatin combo, at 5 µM, stronger effect = higher value
Give just the number in %; leave the unit off.

molecule="CC(N)C12CC3CC(CC(C3)C1)C2 (stereo not given)" reported_metric=inhibition result=-42.4
molecule=CCn1cc(C(=O)O)c(=O)c2cc3c(cc21)OCO3 reported_metric=inhibition result=6.27
molecule=Cc1oncc1C(=O)Nc1ccc(C(F)(F)F)cc1 reported_metric=inhibition result=-28.5

Data point: NC(=O)NO ; inhibition = -5.34

Data point: CCN1CCN(c2cc3c(cc2F)c(=O)c(C(=O)O)cn3C2CC2)CC1 ; inhibition = 5.13

Data point: Nc1nc2c(ncn2COC(CO)CO)c(=O)[nH]1 ; inhibition = -4.59

Data point: Nc1nc(=S)c2[nH]cnc2[nH]1 ; inhibition = -19.8

Data point: O=NN(CCCl)C(=O)NCCCl ; inhibition = -35.2

Data point: O=c1oc2c(O)c(O)cc3c(=O)oc4c(O)c(O)cc1c4c23 ; inhibition = -34.2

Data point: O=c1c(O)c(-c2ccc(O)c(O)c2)oc2cc(O)cc(O)c12 ; inhibition = -2.17

* * *

Assay: reduced SW480 viability measured with CellTiter-Glo, NPC library, primary (AID 1117343)
Settings: CellTiter-Glo luminescence; at 20 µM (top of the series)
REPORTED_METRIC: viability decrease (inhibition) (%)
Give just the number in %; leave the unit off.

Previously resolved entries follow.
molecule=CCCCNc1c(C(=O)OCC)c(C)nc2c1cnn2CC reported_metric="viability decrease (inhibition)" result=124
molecule=c1cnc(N2CCN(Cc3ccc4c(c3)OCO4)CC2)nc1 reported_metric="viability decrease (inhibition)" result=-7.2
molecule=CN(C)CC[C@@H](c1ccc(Cl)cc1)c1ccccn1 reported_metric="viability decrease (inhibition)" result=35.9

Data point: CC(=O)N(O)CCCCCNC(=O)CCC(=O)N(O)CCCCCNC(=O)CCC(=O)N(O)CCCCCN ; viability decrease (inhibition) = 21

Data point: Nc1cc(-c2ccncc2)c[nH]c1=O ; viability decrease (inhibition) = 15

Data point: C[C@](N)(Cc1ccc(O)c(O)c1)C(=O)O ; viability decrease (inhibition) = -10

Data point: CC(=O)OCC1=C(C(=O)O)N2C(=O)[C@@H](NC(=O)CSc3ccncc3)[C@H]2SC1 ; viability decrease (inhibition) = 13.8

* * *

Experiment: viability loss in pontine glioma line – cell-based, SU-DIPG-XVII, MIPE5.0, CellTiter-Glo, qHTS, dose response (AID 1347060);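 for AC50: cells exposed to compound for 48 hours before viability readout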
Settings: CellTiter-Glo ATP luminescence
Records with an inconclusive call do not appear. Activity calls are given as the source filed them. No cut-off is given here; in the data, nearly all actives have AC50 up to about 26 µM.
Use one of these outcomes when replying: Yes = active, No = inactive

Please review the entries below; each comes with its answer.
compound="O=C(NC(Cc1cc(=O)[nH]c2ccccc12)C(=O)O)c1ccc(Cl)cc1 (stereo unspecified)" class_label=No
compound=CN(C)c1ccc2nc3ccc(=[N+](C)C)cc-3sc2c1 class_label=Yes
compound=CCCCc1ccc2nc(NC(=O)OC)[nH]c2c1 class_label=Yes
compound=Cc1nc(-c2ccc(OCC(C)C)c(C#N)c2)sc1C(=O)O class_label=No
compound=CCC[C@H](N[C@@H](C)C(=O)N1[C@H](C(=O)O)C[C@@H]2CCCC[C@@H]21)C(=O)OCC class_label=No

How was NNc1nncc2ccccc12 classified in this test?
No

How was CC(=O)O[C@H]1C[C@@H]2CC[C@@H]3[C@H](CC[C@@]4(C)[C@H]3C[C@H]([N+]3(C)CCCCC3)[C@@H]4OC(C)=O)[C@@]2(C)C[C@@H]1N1CCCCC1 classified in this test?
No

How was CNNCc1ccc(C(=O)NC(C)C)cc1 classified in this test?
No

How was Oc1ccc(C2CNCCc3c2cc(O)c(O)c3Cl)cc1 (stereo unspecified) classified in this test?
No

How was CCCN[C@H]1CCc2nc(N)sc2C1 classified in this test?
No

How was Cc1cc(C2CCCCC2)n(O)c(=O)c1 classified in this test?
Yes

* * *

Recorded measurements of inhibition, one per entry
Test: BT084 cell growth, single and combined drugs, ICGC_MB145, cisplatin and BGB IC40 combos (AID 1671461);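 note: cells exposed to drugs for 96 hours; 0% = vehicle DMSO and 100% = high DMSO full killing control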
Settings: BT084 medulloblastoma cells, drug combinations, at 0.5 µM, stronger effect = higher value
Give just the number in %; leave the unit off.

Previously resolved entries follow.
molecule=Nc1nc(=S)c2[nH]cnc2[nH]1 result=-17.7
molecule=O=C(O)P(=O)(O)O result=-21.4
molecule=Nc1[nH]c(=O)ncc1F result=-18.1

Data point: O=c1c(O)c(-c2ccc(O)c(O)c2)oc2cc(O)cc(O)c12 ; inhibition = 11.1

Data point: CN(C)c1ccc(C(=C2C=CC(=[N+](C)C)C=C2)c2ccc(N(C)C)cc2)cc1 ; inhibition = 70.2

Data point: O=c1oc2c(O)c(O)cc3c(=O)oc4c(O)c(O)cc1c4c23 ; inhibition = -21.3

* * *

Test: blockers of cytochrome c efflux from mitochondria – biochemical, purified mitochondria (AID 1603);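 note: mouse liver mitochondria challenged with calcium chloride; signal normalized to the plate average as 100%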
Settings: stronger effect = lower value
Hi! Could you tag entries with cytochrome c release ratio below 1 as Condition met, and those at or above as Condition not met? Much appreciated.

Please review the entries below; each comes with its answer.
compound=Cc1cc(C)nc(NS(=O)(=O)c2ccc(N)cc2)n1 class_label="Condition not met"
compound=C[N+](C)(C)CCOC(N)=O class_label="Condition met"
compound=C[C@H]1c2cccc(O)c2C(O)=C2C(=O)[C@]3(O)C(O)=C(C(N)=O)C(=O)[C@@H](N(C)C)[C@@H]3[C@@H](O)[C@@H]21 class_label="Condition met"
compound=O=C(Cn1ccnc1[N+](=O)[O-])NCCO class_label="Condition met"
compound="CC(C(=O)O)c1ccc(C(=O)c2cccs2)cc1 (stereo not drawn)" class_label="Condition not met"

Please check: cytochrome c release ratio for CCN(CC)C(=O)N1CCN(C)CC1 , strictly under 1 or not?
Condition met

Please check: cytochrome c release ratio for Nc1ccc(C(=O)NCC(=O)O)cc1 , strictly under 1 or not?
Condition not met

Please check: cytochrome c release ratio for O=C(O)c1ccccc1OP(=O)(O)O , strictly under 1 or not?
Condition not met

Please check: cytochrome c release ratio for CC(=O)N[C@@H](CS)C(=O)O , strictly under 1 or not?
Condition not met

Please check: cytochrome c release ratio for O=NN(CCCl)C(=O)NCCCl , strictly under 1 or not?
Condition met

Please check: cytochrome c release ratio for CCCCOC(=O)c1ccc(N)cc1 , strictly under 1 or not?
Condition met

Hey, just so you know, these numbers are from PubChem BioAssay.
